I'd be grateful if you could share measured Morningglory plant response rating for these entries.
# Test system: morningglory
# assay_method_text: Test B pre/postemergence morningglory
# Type: in vivo, Ipomoea hederacea
# condition_description: Preemergence, Rate 500 g/ha; scale 0 to 10 (0 no effect, 10 complete control)
Would you mind answering with just the numeric figure?

Recorded result, C=CCn1c(=O)on(C(=O)N(c2ccc(F)cc2)C(C)C)c1=O , Morningglory plant response rating: 4

For record CC(C)N(C(=O)n1oc(=O)n(C(C)C)c1=O)c1ccc(F)cc1F the listed Morningglory plant response rating is 10

Record COc1ccccc1Cn1c(=O)on(C(=O)N(c2ccc(F)cc2)C(C)C)c1=O , field Morningglory plant response rating: 0

Item: CC(C)N(C(=O)n1oc(=O)n(C)c1=O)c1ccc(Cl)cc1 | Morningglory plant response rating: 1

###

Can you tell me Soybean plant response rating for the items I'm about to list?
# Test system: soybean
# assay_method_text: Test B pre/postemergence soybean
# Type: in vivo, Glycine max
# condition_description: Preemergence, Rate 62 g/ha; scale 0 to 10 (0 no effect, 10 complete control)

For CN(C(=O)n1oc(=O)n(Cc2ccccc2)c1=O)c1ccccc1 [Compound 153] the molecule record lists Soybean plant response rating as 0

Per the records, this molecule ( Cc1onc(-c2ccccc2)c1-n1c(=O)on(C(=O)N(c2ccc(F)cc2)C(C)C)c1=O [Compound 100] ) has Soybean plant response rating equal to 0

Given item CCCCCCn1c(=O)on(C(=O)N(c2ccccc2)C(C)C)c1=O [Compound 558] , the value recorded as its Soybean plant response rating is 0

Entry under test: CCOC(Cn1c(=O)on(C(=O)N(c2ccc(Cl)cc2)C(C)C)c1=O)OCC [Compound 633] . Its Soybean plant response rating was 0

Noted for CCCCn1c(=O)on(C(=O)N(c2ccccc2)C(C)C)c1=O [Compound 556] : its Soybean plant response rating reads 0

###

# Tested on: purple nutsedge
# assay_method_text: Test B pre/postemergence purple nutsedge
# Format: in vivo, Cyperus rotundus
# condition_description: Postemergence, Rate 125 g/ha; scale 0 to 10, 0 is no effect, 10 is complete control
measured_metric: Nutsedge plant response rating
Format: numeric value only, no unit, no commentary.

Lab note: measured Nutsedge plant response rating of CC(C)N(C(=O)n1oc(=O)n(CC2=CCCCC2)c1=O)c1ccccc1 [Compound 496] was 0

Form: compound = CC(C)N(C(=O)n1oc(=O)n(CC2=CCCN(C)C2)c1=O)c1ccccc1 [Compound 497] ; Nutsedge plant response rating = 0

// Nutsedge plant response rating lookup, compound = CC(C)N(C(=O)n1oc(=O)n(COCc2ccccc2)c1=O)c1ccccc1 [Compound 579] , result: 0

The compound listed as CCCCCCn1c(=O)on(C(=O)N(c2ccccc2)C(C)C)c1=O [Compound 558] has a reported Nutsedge plant response rating of 0

Input COCCOCn1c(=O)on(C(=O)N(c2ccc(F)cc2F)C(C)C)c1=O [Compound 505] . Output Nutsedge plant response rating: 2

###

# Tested on: giant foxtail
# assay_method_text: Test B pre/postemergence giant foxtail
# Assay type: in vivo, Setaria faberii
# condition_description: Postemergence, Rate 62 g/ha; scale 0 to 10, 0 is no effect, 10 is complete control
Can you tell me Plant response rating, Giant foxtail for the items I'm about to list?
Please reply with the number alone, leaving off any unit.

Value of Plant response rating, Giant foxtail reported for the compound CC(C)N(C(=O)n1oc(=O)n(CC(F)F)c1=O)c1ccc(Cl)cc1 is 2

// Plant response rating, Giant foxtail lookup, compound = CC(C)N(C(=O)n1oc(=O)n(Cc2nnc(Cl)s2)c1=O)c1ccc(F)cc1F , result: 0

Recorded Plant response rating, Giant foxtail (compound C=C(Cn1c(=O)on(C(=O)N(c2ccccc2)C(C)C)c1=O)C(C)C ): 0

Quick note, Plant response rating, Giant foxtail for CC(C)N(C(=O)n1oc(=O)n(CCN(C)C(=O)c2ccccc2)c1=O)c1ccccc1 landed at 0

Just so you know, measured Plant response rating, Giant foxtail for CC(C)N(C(=O)n1oc(=O)n(CCCCl)c1=O)c1ccccc1 came out at 9

Per the records, this compound ( CC(C)N(C(=O)n1oc(=O)n(Cc2nnc(Cl)s2)c1=O)c1ccc(F)cc1 ) has Plant response rating, Giant foxtail equal to 0

Record CC(C)N(C(=O)n1oc(=O)n(Cc2nnc(Cl)s2)c1=O)c1ccc(Cl)cc1 , field Plant response rating, Giant foxtail: 0

###

# Tested on: corn
# assay_method_text: Test B pre/postemergence corn
# Assay type: in vivo, Zea mays
# condition_description: Preemergence, Rate 250 g/ha; scale 0 to 10, 0 is no effect, 10 is complete control
Exercise: state measured Corn plant response rating for each of the compounds provided.
Please reply with the value in numeric form only.

Corn plant response rating recorded for this compound, CC(C)N(C(=O)n1oc(=O)n(CCC#N)c1=O)c1ccccc1 [Compound 436] , is 0

Please fill in: Corn plant response rating reported for CC(C)N(C(=O)n1oc(=O)n(CC2CCC2)c1=O)c1ccc(F)cc1 [Compound 403] = 2

get_value(item= CCN(C(=O)n1oc(=O)n(C2CCCCCC2)c1=O)C1CCCCC1 [Compound 429] , readout=Corn plant response rating) returns 0

# Corn plant response rating (compound: CC(C)N(C(=O)n1oc(=O)n(CC2CO2)c1=O)c1ccc(F)cc1 (stereo not shown) [Compound 188] ) is 0

Memo: CCN(C(=O)n1oc(=O)n(C(C)C)c1=O)c1nncs1 [Compound 190] , reported Corn plant response rating: 0

Data point: CC1CC1Cn1c(=O)on(C(=O)N(c2ccc(F)cc2)C(C)C)c1=O (stereo not shown) [Compound 402] ; Corn plant response rating = 3

Kindly note the recorded Corn plant response rating for COc1nc(OC)nc(N(C(=O)n2oc(=O)n(-c3c(C)cccc3C)c2=O)C(C)C)n1 [Compound 180] , which is 0

COc1ccccc1Cn1c(=O)on(C(=O)N(c2ccc(F)cc2)C(C)C)c1=O [Compound 143] has a reported Corn plant response rating of 0

Per the record, C=C[Si](C)(C)Cn1c(=O)on(C(=O)N(c2ccc(Cl)cc2)C(C)C)c1=O [Compound 425] has Corn plant response rating of 0

Given item C=CCn1c(=O)on(C(=O)N(c2ccc(F)cc2)C(C)C)c1=O [Compound 146] , the value recorded as its Corn plant response rating is 8

So for Cc1nc(Cl)sc1C(C)n1c(=O)on(C(=O)N(c2ccccc2)C(C)C)c1=O (stereo not shown) [Compound 407] , the logged Corn plant response rating turned out to be 0

Record CC[Si](C)(C)Cn1c(=O)on(C(=O)N(c2ccc(F)cc2)C(C)C)c1=O [Compound 459] . Reported Corn plant response rating: 0

For CC(C)N(C(=O)n1oc(=O)[nH]c1=O)c1ccc(F)cc1 [Compound 164] the compound record lists Corn plant response rating as 0

###

# Test system: velvetleaf
# assay_method_text: Test B pre/postemergence velvetleaf
# Type: in vivo, Abutilon theophrasti
# condition_description: Preemergence, Rate 500 g/ha; scale 0 (no effect) to 10 (complete control)
measured_metric: Velvetleaf plant response rating

GET /values?item= CC(C)N(C(=O)n1oc(=O)n(-c2ccc(Cl)cc2C(F)(F)F)c1=O)c1ccc(F)cc1 &system= velvetleaf returns Velvetleaf plant response rating: 0

Case Cc1ccccc1-n1c(=O)on(C(=O)N(c2ccccc2)C(C)C)c1=O , velvetleaf, Velvetleaf plant response rating recorded as 0

Sample CC(C)N(C(=O)n1oc(=O)n(Cc2ccccc2)c1=O)c1ccccc1 , system: velvetleaf. Its Velvetleaf plant response rating is 3

Field Velvetleaf plant response rating (velvetleaf), entry Cc1cccc(C)c1-n1c(=O)on(C(=O)N(Cc2ccccc2)C(C)C)c1=O : 0

###

# Test system: pigweed
# assay_method_text: Test B pre/postemergence pigweed
# Assay type: in vivo, Amaranthus retroflexus
# condition_description: Preemergence, Rate 250 g/ha; scale of 0 to 10 where 0 is no effect and 10 is complete control
# Procedure: […] At the same time, these crop and weed species were also treated with postemergence applications of test chemicals formulated in the same manner. […] Treated plants and controls were maintained in a greenhouse for twelve to sixteen days, after which all species were compared to controls and visually evaluated. […]
measured_metric: Redroot pigweed plant response rating
// keep it numeric: no unit symbol after the value

Quick note, Redroot pigweed plant response rating for CC(=O)OCn1c(=O)on(C(=O)N(c2ccc(F)cc2)C(C)C)c1=O [Compound 292] landed at 0

Just so you know, measured Redroot pigweed plant response rating for CC(C)N(C(=O)n1oc(=O)n(N2CCOCC2)c1=O)c1ccc(F)cc1F [Compound 384] came out at 0

The recorded Redroot pigweed plant response rating for entry CC(Cl)=CCn1c(=O)on(C(=O)N(c2ccc(F)cc2)C(C)C)c1=O [Compound 285] equals 5

So for COCC(C)N(C(=O)n1oc(=O)n(-c2ccccc2C)c1=O)c1ccc(F)cc1 (centres unmarked) [Compound 324] , the logged Redroot pigweed plant response rating turned out to be 0

Recorded result, CC(C)N(C(=O)n1oc(=O)n(C2(C)CC2)c1=O)c1ccc(F)cc1 [Compound 362] , Redroot pigweed plant response rating: 10
